Tested on: FOG of α-DG on the cell surfaces
Test: Cell-based HTS/HCS assay, IIH6 antibody as probe (EC1.5)
Conditions: concentration of the compound required to enhance the FOG of α-DG by 50% over the controls; cell-based assays in vitro
READOUT NAME: Activity (EC1.5)

>>> observed_result("CCC(c1nnnn1Cc1cccs1)N1CCN(c2nc3c(F)c(N)ccc3s2)CC1 (stereo not drawn)")
"H (EC1.5<5 μM)"
>>> observed_result("c1csc(Cn2nncc2CN2CCN(c3nc4ccccc4s3)CC2)c1")
"L (EC1.5 20-50 μM)"
>>> observed_result("CCC(c1nnnn1Cc1cccs1)N1CCN(c2nc3cccc(F)c3s2)CC1 (stereo not drawn)")
"H (EC1.5<5 μM)"
>>> observed_result("CCC(c1nnnn1Cc1cccs1)N1CCN(c2nc3ccc(Cl)cc3s2)CC1 (stereo not drawn)")
"M (EC1.5-20 μM)"
>>> observed_result("CCC(c1nnnn1Cc1cccs1)C1CCCN(c2nc3cc(N)cc(F)c3s2)CC1 (stereo not drawn)")
"H (EC1.5<5 μM)"
>>> observed_result("CCC(c1nnnn1Cc1cncs1)N1CCN(c2nc3cccc(F)c3s2)CC1 (stereo not drawn)")
"L (EC1.5 20-50 μM)"
>>> observed_result("CC(c1nnnn1Cc1cccs1)N1CCN(c2nc3ccccc3s2)CC1 (stereo not drawn)")
"M (EC1.5-20 μM)"
>>> observed_result("CCC(c1nnnn1Cc1cccs1)N1CCN(c2nc3ccc(N)cc3s2)CC1 (stereo not drawn)")
"M (EC1.5-20 μM)"

* * *

Test system: FOG of α-DG on the cell surfaces
Test: Cell-based HTS/HCS assay, IIH6 antibody as probe (EC1.5)
Details: concentration of the compound required to enhance the FOG of α-DG by 50% over the controls; cell-based assays in vitro
READOUT NAME: Activity (EC1.5)

>>> observed_result("CCC(c1nnnn1Cc1cccs1)N1CCN(Cc2nc3ccccc3s2)CC1 (centres unmarked)")
"L (EC1.5 20-50 μM)"
>>> observed_result("CCC(c1nnnn1Cc1cccs1)N1CCN(c2nc3ccccc3s2)CC1 (centres unmarked)")
"M (EC1.5-20 μM)"
>>> observed_result("CCC(c1nnnn1Cc1cccs1)N1CCC(c2nc3ccccc3s2)CC1 (centres unmarked)")
"M (EC1.5-20 μM)"
>>> observed_result("CCC(c1nnnn1CCc1cccs1)N1CCN(C2Sc3c(F)cc(N)cc3N2N)CC1 (centres unmarked)")
"H (EC1.5<5 μM)"
>>> observed_result("CCC(c1nnnn1Cc1cccs1)N1CCN(c2nc3cccc(C(F)(F)F)c3s2)CC1 (centres unmarked)")
"L (EC1.5 20-50 μM)"
>>> observed_result("CCC(c1nnnn1CCc1cccs1)N1CCN(C2Sc3c(F)cc(N)cc3N2[N+](=O)[O-])CC1 (centres unmarked)")
"H (EC1.5<5 μM)"
>>> observed_result("CCC(c1nnnn1Cc1cccs1)N1CCCN(c2nc3cc(N)cc(F)c3s2)CCC1 (centres unmarked)")
"H (EC1.5<5 μM)"
>>> observed_result("CCC(c1nnnn1Cc1cccs1)N1CCN(c2nc3cc(N)c(N)cc3s2)CC1 (centres unmarked)")
"H (EC1.5<5 μM)"

* * *

Test system: FOG of α-DG on the cell surfaces
Experiment: Cell-based HTS/HCS assay, IIH6 antibody as probe (EC1.5)
Settings: concentration of the compound required to enhance the FOG of α-DG by 50% over the controls; cell-based assays in vitro
READOUT NAME: Activity (EC1.5)

>>> observed_result("CCC(c1nnnn1Cc1cccs1)N1CCN(c2nc3cc([N+](=O)[O-])ccc3s2)CC1 (stereo not shown)")
"M (EC1.5-20 μM)"
>>> observed_result("CCC(c1nnnn1Cc1cccs1)C1CCCC(c2nc3cc(N)cc(F)c3s2)CC1 (stereo not shown)")
"H (EC1.5<5 μM)"
>>> observed_result("CCC(c1nnnn1Cc1cccs1)N1CCN(c2nc3ccc(OC)cc3s2)CC1 (stereo not shown)")
"M (EC1.5-20 μM)"
>>> observed_result("CCC(c1nnnn1Cc1cccs1)N1CCN(c2nc3cccc(Br)c3s2)CC1 (stereo not shown)")
"L (EC1.5 20-50 μM)"
>>> observed_result("CCC(c1nnnn1Cc1cccs1)N1CCN(c2nc3cc(OC)c(OC)c(OC)c3s2)CC1 (stereo not shown)")
"M (EC1.5-20 μM)"
>>> observed_result("CCC(NCCNc1nc2cccc(F)c2s1)c1nnnn1Cc1cccs1 (stereo not shown)")
"M (EC1.5-20 μM)"
>>> observed_result("CCC(c1nnnn1Cc1cccs1)N1CCN(c2nc3ccc(C(=O)O)cc3s2)CC1 (stereo not shown)")
"L (EC1.5 20-50 μM)"
>>> observed_result("CCC(c1nnnn1Cc1cccs1)N1CCN(c2nc3ccc(C(=O)OC)cc3s2)CC1 (stereo not shown)")
"L (EC1.5 20-50 μM)"
>>> observed_result("CCC(c1nnnn1CCc1cccs1)N1CCCN(c2nc3cc(N)cc(F)c3s2)CC1 (stereo not shown) [Compound 75]")
"H (EC1.5<5 μM)"
>>> observed_result("CCC(c1nnnn1CCc1cccs1)N1CCN(c2nc3cc(N)cc(F)c3s2)C([N+](=O)[O-])C1 (stereo not shown)")
"H (EC1.5<5 μM)"
>>> observed_result("CCC(c1nnnn1CCc1ccns1)N1CCN(c2nc3cc(N)cc(F)c3s2)CC1 (stereo not shown)")
"H (EC1.5<5 μM)"
>>> observed_result("CCC(c1nnnn1CCc1cccs1)N1CCN(c2nc3cc(N)cc(F)c3s2)C(N)C1 (stereo not shown)")
"H (EC1.5<5 μM)"
>>> observed_result("CCC(c1nnnn1Cc1cccs1)N1CCN(c2nc3cc(N)cc(F)c3s2)CC1 (stereo not shown)")
"H (EC1.5<5 μM)"
>>> observed_result("CCC(C(=O)NCc1cccs1)c1ccc(-c2nc3ccccc3s2)cc1 (stereo not shown)")
"M (EC1.5-20 μM)"
>>> observed_result("c1csc(Cn2nnnc2CN2CCN(c3nc4ccccc4s3)CC2)c1")
"M (EC1.5-20 μM)"
>>> observed_result("CCC(c1nnnn1CCc1cccs1)N1CCCN(c2nc3cc(N)cc(F)c3s2)CC1 (stereo not shown) [Compound 76]")
"H (EC1.5<5 μM)"
>>> observed_result("CCC(c1nnnn1Cc1cccs1)N1CCN(c2nc3ccc(F)cc3s2)CC1 (stereo not shown)")
"L (EC1.5 20-50 μM)"
>>> observed_result("CCC(c1nnnn1Cc1cccs1)N1CCN(c2nc3cccc(C(=O)OC)c3s2)CC1 (stereo not shown)")
"L (EC1.5 20-50 μM)"
>>> observed_result("CCC(c1nnnn1Cc1cccs1)N1CCN(c2nc3c(F)c(N)c(N)c(F)c3s2)CC1 (stereo not shown)")
"H (EC1.5<5 μM)"
>>> observed_result("CCC(c1nnnn1Cc1ccco1)N1CCC(c2nc3ccccc3s2)CC1 (stereo not shown)")
"M (EC1.5-20 μM)"
>>> observed_result("CCC(c1nnnn1Cc1cccs1)C1CCN(c2nc3cc(N)cc(F)c3s2)C1 (stereo not shown)")
"H (EC1.5<5 μM)"
>>> observed_result("CCC(c1nnnn1CCc1cccs1)N1CCN(c2nc3cc(N)c(N)cc3s2)CC1 (stereo not shown)")
"H (EC1.5<5 μM)"
>>> observed_result("CCC(c1nnnn1CCc1cccs1)N1CCN(c2nc3cc(N)cc(F)c3s2)CC1[N+](=O)[O-] (stereo not shown) [Compound 64]")
"H (EC1.5<5 μM)"
>>> observed_result("CCC(c1nnnn1Cc1cccs1)N1CCN(c2nc3ccccc3[nH]2)CC1 (stereo not shown)")
"L (EC1.5 20-50 μM)"
>>> observed_result("CCC(c1nnnn1Cc1ccc(C)s1)N1CCN(c2nc3cc(N)cc(F)c3s2)CC1 (stereo not shown)")
"H (EC1.5<5 μM)"
>>> observed_result("CCC(c1nnnn1Cc1ccc(F)s1)N1CCN(c2nc3cc(N)cc(F)c3s2)C(C)C1 (stereo not shown)")
"H (EC1.5<5 μM)"
>>> observed_result("CCC(c1nnnn1Cc1cccs1)N1CCN(c2nc3ccccc3o2)CC1 (stereo not shown)")
"M (EC1.5-20 μM)"
>>> observed_result("CCC(c1nnnn1Cc1ccns1)N1CCN(c2nc3cc(N)cc(F)c3s2)CC1 (stereo not shown)")
"H (EC1.5<5 μM)"
>>> observed_result("CCC(c1nnnn1CCc1cccs1)N1CCN(c2nc3cc(N)cc(F)c3s2)CC1 (stereo not shown)")
"H (EC1.5<5 μM)"
>>> observed_result("CCC(c1nnnn1Cc1cccs1)N1CCN(c2nc3cc(N)ccc3s2)CC1 (stereo not shown)")
"H (EC1.5<5 μM)"
>>> observed_result("O=C(c1nnnn1Cc1cccs1)N1CCN(c2nc3cccc(F)c3s2)CC1")
"L (EC1.5 20-50 μM)"
>>> observed_result("CCC(c1nnnn1Cc1cccs1)N1CCN(c2nc3ccc(C)cc3s2)CC1 (stereo not shown)")
"L (EC1.5 20-50 μM)"
>>> observed_result("CCC(c1nnnn1Cc1cccs1)N1CCN(c2nc3ccc(NC(=O)CCCC[C@@H]4SC[C@@H]5NC(=O)N[C@@H]54)cc3s2)CC1 (stereo partly shown)")
"H (EC1.5<5 μM)"

Values compiled from patent US10221168B1.
